These measurements were taken from ChEMBL document CHEMBL1134945.

pKi: −log10 of the molar value.
// endpoint pKi / system Kappa-type opioid receptor (Homo sapiens, UniProt P41145)
observable: pKi

Record excerpt, results attached:
INSERT INTO assay_data (compound, system_tested, recorded_result) VALUES
  ('CCCCC(c1ccccc1)N1CC[C@H]1[C@@H](N)c1cccc(Cl)c1 (some centres undefined)', 'Kappa-type opioid receptor (Homo sapiens, UniProt P41145)', 5.43),
  ('CCCCC(c1cc(F)cc(F)c1)N1CC[C@H]1[C@H](N)c1cccc(Cl)c1 (some centres undefined)', 'Kappa-type opioid receptor (Homo sapiens, UniProt P41145)', 5.37);

[I] N[C@@H](c1ccc(Cl)cc1)[C@@H]1CCN1C(c1ccccc1)c1ccccc1
[II] N[C@@H](c1cccc(C(F)(F)F)c1)[C@@H]1CCN1C(c1ccccc1)c1ccccc1 (stereo in doubt; (+\-)-1)
Out of I and II , name the one with the higher pKi. I would appreciate it if you answered with the label of your choice.
I
